# credit: ChEMBL document CHEMBL1137338

biological target: Sulfonylurea receptor 2, Kir6.2 (Homo sapiens, UniProt O60706+Q14654); experiment: Activity against pig bladder KATP channel opening assessed as ability to relax field-stimulated pig detrusor; assay type: functional, Sus scrofa; settings: target entry is the homologue from another species
Sequence (Q14654 whole entry): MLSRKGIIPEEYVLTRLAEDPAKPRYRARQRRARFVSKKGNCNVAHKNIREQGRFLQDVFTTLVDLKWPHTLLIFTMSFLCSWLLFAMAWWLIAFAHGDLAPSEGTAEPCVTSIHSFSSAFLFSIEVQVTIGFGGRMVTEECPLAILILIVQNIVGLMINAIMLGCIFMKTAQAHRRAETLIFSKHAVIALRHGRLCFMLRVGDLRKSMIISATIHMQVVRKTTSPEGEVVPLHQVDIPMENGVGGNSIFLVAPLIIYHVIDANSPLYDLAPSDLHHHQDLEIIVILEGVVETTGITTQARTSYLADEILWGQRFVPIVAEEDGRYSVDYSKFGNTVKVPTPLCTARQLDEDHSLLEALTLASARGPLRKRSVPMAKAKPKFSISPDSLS
Sequence (O60706 whole entry): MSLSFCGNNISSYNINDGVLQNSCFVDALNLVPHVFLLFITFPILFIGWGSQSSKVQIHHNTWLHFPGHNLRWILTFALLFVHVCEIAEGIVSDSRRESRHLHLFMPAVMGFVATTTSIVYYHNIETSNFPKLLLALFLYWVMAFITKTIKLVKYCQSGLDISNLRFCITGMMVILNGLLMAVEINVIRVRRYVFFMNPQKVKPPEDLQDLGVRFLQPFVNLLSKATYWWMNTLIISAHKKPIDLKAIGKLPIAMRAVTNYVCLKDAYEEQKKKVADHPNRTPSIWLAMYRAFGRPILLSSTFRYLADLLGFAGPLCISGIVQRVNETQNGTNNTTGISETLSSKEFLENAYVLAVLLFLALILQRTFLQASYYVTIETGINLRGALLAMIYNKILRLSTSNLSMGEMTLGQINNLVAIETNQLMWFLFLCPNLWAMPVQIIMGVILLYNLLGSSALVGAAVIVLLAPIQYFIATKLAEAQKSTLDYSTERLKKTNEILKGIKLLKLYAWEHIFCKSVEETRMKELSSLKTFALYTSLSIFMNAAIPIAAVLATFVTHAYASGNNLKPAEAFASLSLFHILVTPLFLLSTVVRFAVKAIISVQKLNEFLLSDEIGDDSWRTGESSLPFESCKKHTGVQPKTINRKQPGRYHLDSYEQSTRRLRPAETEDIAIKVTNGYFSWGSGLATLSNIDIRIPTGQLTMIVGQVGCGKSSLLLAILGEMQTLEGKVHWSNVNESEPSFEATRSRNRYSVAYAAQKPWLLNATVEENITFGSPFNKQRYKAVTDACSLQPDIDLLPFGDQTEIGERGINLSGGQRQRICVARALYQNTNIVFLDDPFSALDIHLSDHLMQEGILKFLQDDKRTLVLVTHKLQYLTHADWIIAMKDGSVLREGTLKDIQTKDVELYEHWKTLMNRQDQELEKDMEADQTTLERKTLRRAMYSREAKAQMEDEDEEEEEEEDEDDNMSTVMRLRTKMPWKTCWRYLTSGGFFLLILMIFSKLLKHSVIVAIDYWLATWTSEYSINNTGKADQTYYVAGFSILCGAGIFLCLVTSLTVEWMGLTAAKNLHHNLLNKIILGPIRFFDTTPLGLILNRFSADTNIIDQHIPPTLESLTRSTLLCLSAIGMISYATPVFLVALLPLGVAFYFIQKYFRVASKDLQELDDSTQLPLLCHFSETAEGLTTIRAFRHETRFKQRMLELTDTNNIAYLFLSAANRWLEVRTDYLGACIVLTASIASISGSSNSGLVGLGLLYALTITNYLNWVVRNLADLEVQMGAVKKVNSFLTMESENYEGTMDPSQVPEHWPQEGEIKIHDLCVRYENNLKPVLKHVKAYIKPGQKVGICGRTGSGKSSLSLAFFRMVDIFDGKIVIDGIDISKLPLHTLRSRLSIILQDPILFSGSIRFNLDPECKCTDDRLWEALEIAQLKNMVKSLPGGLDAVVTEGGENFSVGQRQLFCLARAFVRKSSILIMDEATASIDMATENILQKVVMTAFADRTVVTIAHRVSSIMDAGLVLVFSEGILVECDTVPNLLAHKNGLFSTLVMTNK
measurement.label: EC50 (nM)
The figure you give is taken to be in nM; do not add the unit.

* CC[C@H]1OC(O)=C2C1=NC1=C(C(=O)COC1)[C@H]2c1ccc(F)c(Br)c1 (racemic) | 490
* CC[C@@H]1OCC2=C(C1=O)[C@@H](c1ccc(F)c(Br)c1)C1=C(O)OCC1=N2 (stereo in doubt; 10b) | 891
* O=C1COCC2=C1C(c1ccc(F)c(Br)c1)C1=C(O)COCC1=N2 (centres undefined) | 126

Turning now to a further record.
Recorded EC50 of C[C@@H]1OC(O)=C2C1=NC1=C(C(=O)COC1)[C@H]2c1ccc(F)c(Br)c1 (stereo in doubt; 17a) , please.
35.5
